Molecular target: Cytochrome P450 3A4 (Homo sapiens) (UniProt P08684)
Sequence (P08684 whole entry, looked up): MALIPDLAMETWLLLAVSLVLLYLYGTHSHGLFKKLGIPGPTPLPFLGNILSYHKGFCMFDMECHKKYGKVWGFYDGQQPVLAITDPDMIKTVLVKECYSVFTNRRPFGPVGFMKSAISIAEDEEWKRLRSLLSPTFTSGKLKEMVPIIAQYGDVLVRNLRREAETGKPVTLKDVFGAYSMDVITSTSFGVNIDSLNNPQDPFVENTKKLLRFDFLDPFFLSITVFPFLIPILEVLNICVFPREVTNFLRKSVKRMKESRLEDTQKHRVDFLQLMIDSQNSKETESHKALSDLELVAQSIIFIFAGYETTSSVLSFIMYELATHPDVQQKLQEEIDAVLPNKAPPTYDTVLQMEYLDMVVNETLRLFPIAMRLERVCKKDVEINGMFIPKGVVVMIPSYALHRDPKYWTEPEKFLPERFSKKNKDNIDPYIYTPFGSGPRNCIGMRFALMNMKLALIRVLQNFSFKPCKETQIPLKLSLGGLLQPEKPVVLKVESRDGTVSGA
Assay: qHTS Assay for Activators of Cytochrome P450 3A4 (AID 885); note: nearly all actives have a fitted effect of over 65% in size
Conditions: recombinant CYP3A4, Luciferin-PPXE luminescence, 60 min; series mostly up to 57.1 µM
Calls of active or inactive are those of the source. Calls come from the whole dose curve; as a rule, active = well fitted activation curve with a large enough effect; inconclusive = small, poorly fitted or top-dose-only effect; inactive = no such curve, though single readings can be large or run the other way.
parameter: activity change, positive = activation

Examples with their reported activity change, positive = activation follow.
- compound: "COC(=O)[C@@H]1C[C@H]1[C@@H](NC(=O)c1ccc(Br)cc1)c1ccccc1"
  study target: "Cytochrome P450 3A4 (Homo sapiens) (UniProt P08684)"
  activity change, positive = activation: "inactive"
- compound: "C#CCCCO/N=C1/C[C@@H](O)[C@@H](O)[C@@H]2[C@@H]3C(=O)N(C4CCCCC4)C(=O)[C@H]3CC[C@@H]12"
  study target: "Cytochrome P450 3A4 (Homo sapiens) (UniProt P08684)"
  activity change, positive = activation: "-78.4% [at 11.4 µM] (inactive)"
- compound: "CC(=O)OC[C@@H]1O[C@H](C/C=N\\O[C@@H](C)CN2CCCc3nc(C)c(C)cc32)C=C[C@@H]1OC(C)=O"
  study target: "Cytochrome P450 3A4 (Homo sapiens) (UniProt P08684)"
  activity change, positive = activation: "-35.5% [at 11.4 µM] (inactive)"
- compound: "COc1ccc(O[C@H]2C=C[C@@H](c3ccccc3)O[C@H]2CO/N=C\\C[C@@H]2C=C[C@H](OC(C)=O)[C@H](COC(C)=O)O2)cc1"
  study target: "Cytochrome P450 3A4 (Homo sapiens) (UniProt P08684)"
  activity change, positive = activation: "-90.6% [at 11.4 µM] (inactive)"

Consider now this further compound.
Request: Given COC(=O)c1cccc(C23CC4(C2)[C@H](CN(C)[C@@H]4c2ccccc2)C3c2ccc(C(F)(F)F)cc2)c1 (stereo partly specified) , state its recorded activity change, positive = activation.
Result: inactive
